Molecular target: human GPR1 (Homo sapiens)
Construct: host or cells: CHO-K1
Sequence (P46091 1-355): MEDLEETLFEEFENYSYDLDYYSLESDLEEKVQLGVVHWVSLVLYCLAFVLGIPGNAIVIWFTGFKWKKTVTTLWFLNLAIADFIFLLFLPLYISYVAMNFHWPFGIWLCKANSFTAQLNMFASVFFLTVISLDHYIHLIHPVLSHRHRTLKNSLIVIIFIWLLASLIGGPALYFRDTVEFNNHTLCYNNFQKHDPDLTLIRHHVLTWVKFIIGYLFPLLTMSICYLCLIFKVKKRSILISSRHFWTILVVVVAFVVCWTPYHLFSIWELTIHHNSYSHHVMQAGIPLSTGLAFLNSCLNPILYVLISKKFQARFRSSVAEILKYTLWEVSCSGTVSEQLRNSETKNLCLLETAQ
Assay: β‐Arrestin recruitment at GPR1
Type: cell-based
Ends that are not written are not given here.
experimentalReadout: pEC50
Numbers only, as −log10 of the molar value.

Would you kindly share the measured pEC50 for PHSFYFPGQFAFS [C13] ? 8.65
